Origin of values: ChEMBL document CHEMBL1921768

Molecular target: Cytochrome P450 2A6 (Homo sapiens, UniProt P11509)
Sequence (P11509 whole entry): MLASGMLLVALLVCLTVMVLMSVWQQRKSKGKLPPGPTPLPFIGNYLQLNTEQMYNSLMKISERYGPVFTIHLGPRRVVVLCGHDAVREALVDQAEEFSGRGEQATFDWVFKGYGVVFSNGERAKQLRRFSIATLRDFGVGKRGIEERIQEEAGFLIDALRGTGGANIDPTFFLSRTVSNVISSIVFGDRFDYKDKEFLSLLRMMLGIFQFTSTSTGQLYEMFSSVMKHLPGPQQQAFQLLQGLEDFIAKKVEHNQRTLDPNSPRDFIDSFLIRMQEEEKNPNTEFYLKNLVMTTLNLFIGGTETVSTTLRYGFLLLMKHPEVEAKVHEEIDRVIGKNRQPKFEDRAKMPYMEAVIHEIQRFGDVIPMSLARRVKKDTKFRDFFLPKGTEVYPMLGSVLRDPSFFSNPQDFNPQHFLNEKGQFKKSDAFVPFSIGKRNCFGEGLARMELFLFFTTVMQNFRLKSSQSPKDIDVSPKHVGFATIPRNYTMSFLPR
Assay: Inhibition of CYP2A6 in human liver microsomes assessed as inhibition of coumarin 7-hydroxylation after 10 mins by plate reader
Assay type: ADME, Microsome
EXPERIMENTAL_READOUT: IC50 (µM)

Examples from the recorded data:
COMPOUND_STRUCTURE_STRING | TEST_SYSTEM | IC50, µM
O=Cc1csc2ccccc12 | Cytochrome P450 2A6 (Homo sapiens, UniProt P11509) | 1.6
NCc1csc2ccccc12 | Cytochrome P450 2A6 (Homo sapiens, UniProt P11509) | 1.5
NCc1cc2ccccc2s1 | Cytochrome P450 2A6 (Homo sapiens, UniProt P11509) | 0.1

[A] NCc1ccc2sccc2c1
[B] Brc1ccc2[nH]ccc2c1
Consider A and B . Which of these has its IC50 at a higher number? // return label of chosen record B
(B: 6.4 µM, A: 1.7 µM)
